Kindly supply the reported growth values for the records listed here.
- Test system: TK-10 renal
- EXPERIMENT NOTES: NCI-60 one-dose screen, 48 h (100 = growth as untreated, 0 = no growth, -100 = all killed)
- CONDITIONS USED: 10 µM unless noted
This is part of a sample that, as a whole, favours compounds with a hit. Of some 83,000 tested, about 20% had one in any assay.
One number for each entry, in %.

>  <SMILES STRUCTURE>
COc1cccc(N=CNc2cccc(OC)c2)c1

>  <RECORDED METRIC>
growth

>  <UNIT SPEC>
%

>  <RESULT NUMBER>
113

$$$$

Record growth per entry; entries follow.
1. OCCc1ccc(Cl)cc1
2. Cn1c(=O)[nH]c2ccccc2c1=O

OUT:
1. 94.7
2. 94.3
